Origin of measurements: paper PMC8829947

Entries and their IC50
subject.of.test: VIM-2 (Escherichia coli, UniProt Q5U7L7)
assay.explanation: In vitro enzyme inhibition assay, purified recombinant VIM-2
assay.metric: IC50 (µM)

[[record]]
molecule = "CC(C)(S)C(NC[C@H](NC[C@H](N)C(=O)O)C(=O)O)C(=O)O (stereo in doubt) [Compound 15]"
assay_metric = "IC50"
reported = 361

[[record]]
molecule = "N[C@@H](CN[C@@H](CN[C@@H](CC(=O)O)C(=O)O)C(=O)O)CSc1ccc(O)cc1 [Compound 6]"
assay_metric = "IC50"
reported = 183

[[record]]
molecule = "N[C@@H](CN[C@@H](CN[C@@H](Cc1c[nH]cn1)C(=O)O)C(=O)O)C(=O)O [Compound 10]"
assay_metric = "IC50"
reported = 136

[[record]]
molecule = "N[C@@H](CN[C@@H](CN[C@@H](CC(=O)O)C(=O)O)C(=O)O)CSc1ccccc1 [Compound 4]"
assay_metric = "IC50"
reported = 246

[[record]]
molecule = "N[C@@H](CN[C@@H](CNC(CS)C(=O)O)C(=O)O)C(=O)O (stereo in doubt) [Compound 11]"
assay_metric = "IC50"
reported = 22

[[record]]
molecule = "CC(C)(S)C(NC[C@H](NC[C@H](N)C(=O)O)C(=O)O)C(=O)O (stereo in doubt) [Compound 14]"
assay_metric = "IC50"
reported = 246

